- TARGET OF ASSAY: Recombinant GST-NEMO (from plasmid pGEX4T3-NEMO(1-196)) (UniProt Q9Y6K9)
- Sequence (Q9Y6K9 1-196): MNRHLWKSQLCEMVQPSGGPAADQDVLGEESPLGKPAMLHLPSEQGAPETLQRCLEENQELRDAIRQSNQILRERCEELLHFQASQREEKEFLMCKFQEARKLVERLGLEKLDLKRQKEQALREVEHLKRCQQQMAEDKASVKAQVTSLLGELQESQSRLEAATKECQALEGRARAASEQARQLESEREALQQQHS
- PROTOCOL SUMMARY: HTRF competition against biotin-IKKβKK/RR(701-745) on GST-NEMO
pIC50: −log10 of the molar value. Numbered stars: 1 amine (or outer) side, 2 acyl side, 3 side chain; on linkers, the order of the positions; unused ones are H or OH. Bridge positions count the residues as written; N and C are the ends. Square brackets hold non-standard residues; d marks the D form. Ends that are not written are not given here. Tm = trimesic acid, bicyclized on Tm at the N-terminus; Trimesoyl = O=C(c1cc(C(=O)[*:2])cc(C(=O)[*:3])c1)[*:1]; 2Nal = N[C@@H](Cc1ccc2ccccc2c1)C(=O)O; Dap = NC[C@H](N)C(=O)O; βAla = NCCC(=O)O
OBSERVED PROPERTY: pIC50

1. Trimesoyl-GAIYA[Dap]F[2Nal]R[dR]R[Dap][βAla][βAla]K (linker N-6-12 via Tm) [peptide 12, Tm(GAIYA)Δ(FΦRrRΔ)-BBK]; 5.52
2. Trimesoyl-GWAYA[Dap]F[2Nal]R[dR]R[Dap][βAla][βAla]K (linker N-6-12 via Tm) [peptide 13, Tm(GWAYA)Δ(FΦRrRΔ)-BBK]; 5.77
3. Trimesoyl-GWIY[Dap]F[2Nal]RRR[Dap][βAla][βAla]K (linker N-5-11 via Tm) [peptide 2, Tm(GWIY)Δ(FΦRRRΔ)-BBK]; 5.47

(I) Trimesoyl-[dA]GWIY[Dap]F[2Nal]R[dR]R[Dap][βAla][βAla]K (linker N-6-12 via Tm) [peptide 10, Tm(aGWIY)Δ(FΦRrRΔ)-BBK]
(II) Trimesoyl-AWIYA[Dap]F[2Nal]R[dR]R[Dap][βAla][βAla]K (linker N-6-12 via Tm) [peptide 11, Tm(AWIYA)Δ(FΦRrRΔ)-BBK]
## Task Larger number for pIC50: I , or II ? Give the chosen item's label as your response.
## Result II
